- TARGET_OR_TEST_SYSTEM: phosphorylated FGFR3 (SEQ ID NO: 5, amino acids 449 to 759) (Homo sapiens (Human), UniProt P22607)
- Sequence (P22607 449-759): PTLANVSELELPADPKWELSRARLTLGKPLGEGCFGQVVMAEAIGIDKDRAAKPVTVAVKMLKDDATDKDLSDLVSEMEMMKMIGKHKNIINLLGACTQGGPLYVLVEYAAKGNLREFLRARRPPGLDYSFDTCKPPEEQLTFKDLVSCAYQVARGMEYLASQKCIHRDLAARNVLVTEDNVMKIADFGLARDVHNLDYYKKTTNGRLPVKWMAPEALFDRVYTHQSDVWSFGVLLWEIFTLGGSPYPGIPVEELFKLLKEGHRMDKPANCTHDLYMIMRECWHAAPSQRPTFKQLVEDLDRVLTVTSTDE
MEASURED_ATTRIBUTE: IC50 (nM)
Answer format: numeric, nM implied, no suffix.

COMPOUND	IC50 / nM
C=CS(=O)(=O)N[C@@H]1CC[C@H](C(=O)N2CCC(n3cc(-c4cc(OC)c5c(C#N)cnn5c4)cn3)CC2)C1 [Example 191]	10
C=CC(=O)N1CC(C(=O)N2CCC(n3ncc(-c4cc(OC)c5c(C#N)cnn5c4)c3C)CC2)C1(C)C (stereo not drawn) [Example 87]	16

Pending compound:
Input line: # input compound: C=CC(=O)N1CC(C(=O)N2CCC3(CC2)CN(c2ccc(-c4cc(OC)c5c(C#N)cnn5c4)cn2)C3)C1 [Example 102] ; wanted: its IC50
Output line: 6

====

- TARGET_OR_TEST_SYSTEM: recombinant human FGFR3 (amino acids R397-T806) (Homo sapiens (Human), UniProt P22607)
- Sequence (P22607 397-806): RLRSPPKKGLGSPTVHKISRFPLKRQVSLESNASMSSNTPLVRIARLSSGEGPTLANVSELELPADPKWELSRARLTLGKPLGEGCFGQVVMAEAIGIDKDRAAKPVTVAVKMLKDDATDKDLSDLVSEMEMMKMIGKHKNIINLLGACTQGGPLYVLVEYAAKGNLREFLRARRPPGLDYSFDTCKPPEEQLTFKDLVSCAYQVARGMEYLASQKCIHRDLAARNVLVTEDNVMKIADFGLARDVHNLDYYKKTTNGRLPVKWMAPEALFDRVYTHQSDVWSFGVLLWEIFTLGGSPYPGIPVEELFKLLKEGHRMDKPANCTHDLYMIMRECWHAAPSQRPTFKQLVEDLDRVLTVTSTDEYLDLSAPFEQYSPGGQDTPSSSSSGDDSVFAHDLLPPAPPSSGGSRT
- RUN_DESCRIPTION: FGFR3 enzyme activity assay (LanthaScreen TR-FRET)
- RUN_CONDITIONS: 25 μM ATP, 10 min incubation at 22° C., average of multiple determinations if made, read-out: FGFR3 Enz FRET IC50
MEASURED_ATTRIBUTE: pIC50
Here pIC50 is given on a logarithmic scale as minus log10 of the concentration in mol/L.

Input line: Bench note: what pIC50 did C=CC(=O)N1CC(C)(C(=O)N2CCC(n3cc(-c4cc(OC)c5c(Cl)cnn5c4)cn3)CC2)C1 [Example 123] show?
Output line: 8.10

====

Listed here are compounds together with their documented IC50.
- TARGET_OR_TEST_SYSTEM: recombinant human FGFR3 (amino acids R397-T806) (Homo sapiens (Human))
- RUN_DESCRIPTION: FGFR3 enzyme activity assay (LanthaScreen TR-FRET)
- RUN_CONDITIONS: 25 μM ATP, 10 min incubation at 22° C., average of multiple determinations if made, read-out: FGFR3 Enz FRET IC50
Give the quantity in nM, number only.

COMPOUND	TARGET_OR_TEST_SYSTEM	MEASURED_ATTRIBUTE	OUTPUT_UNIT	RECORDED_MEASUREMENT
COc1cc(-c2cnn(C3CCN(C(=O)C4(F)CN(C(=O)/C=C/C(F)(F)F)C4)CC3)c2C)cn2ncc(C#N)c12 [Example 155]	recombinant human FGFR3 (amino acids R397-T806) (Homo sapiens (Human))	IC50	nM	11
COc1cc(-c2cnn(C3CCN(C(=O)C4CN(C(=O)/C=C/CO)C4)CC3)c2)cn2ncc(C#N)c12 [Example 141]	recombinant human FGFR3 (amino acids R397-T806) (Homo sapiens (Human))	IC50	nM	6
C=CC(=O)N1CCC(C(=O)N2CCN(c3ccc(-c4cc(OC)c5c(C#N)cnn5c4)cn3)CC2)CC1 [Example 109]	recombinant human FGFR3 (amino acids R397-T806) (Homo sapiens (Human))	IC50	nM	6

Proceeding to the next compound to report its IC50.
Input line: Reported IC50 for COc1cc(-c2cnn(C3CCN(C(=O)C4(F)CN(C(=O)/C=C/CN(C)C)C4)CC3)c2C)cn2ncc(Cl)c12 [Example 170] : what is it?
Output line: 17

====

- TARGET_OR_TEST_SYSTEM: recombinant human FGFR2 cytoplasmic domain (amino acids 403-822) (Homo sapiens (Human), UniProt P21802)
- Sequence (P21802 402-821): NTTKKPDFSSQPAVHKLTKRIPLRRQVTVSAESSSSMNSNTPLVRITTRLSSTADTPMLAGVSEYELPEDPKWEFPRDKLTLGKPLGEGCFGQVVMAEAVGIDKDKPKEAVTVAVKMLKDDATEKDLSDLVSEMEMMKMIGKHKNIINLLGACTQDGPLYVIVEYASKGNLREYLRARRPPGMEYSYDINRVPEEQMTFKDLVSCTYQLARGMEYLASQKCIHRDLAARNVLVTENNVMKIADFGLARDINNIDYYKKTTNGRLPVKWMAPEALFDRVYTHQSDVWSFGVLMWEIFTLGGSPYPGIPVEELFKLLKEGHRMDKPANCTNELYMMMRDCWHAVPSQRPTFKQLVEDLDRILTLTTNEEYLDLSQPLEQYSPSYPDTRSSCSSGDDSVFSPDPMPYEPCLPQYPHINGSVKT
- RUN_DESCRIPTION: FGFR2 enzyme activity assay (LanthaScreen TR-FRET)
- RUN_CONDITIONS: 15 μM ATP, 20 min incubation at 22° C., average of multiple determinations if made, read-out: FGFR2 Enz FRET IC50
MEASURED_ATTRIBUTE: pIC50
Scale explanation: pIC50 corresponds to minus log10 of a concentration expressed in moles per litre.

ENTRY_SMILES	RECORDED_MEASUREMENT
C=CS(=O)(=O)N1CCC2(CC1)CC(C(=O)N1CCC(n3cc(-c4cc(OC)c5c(C#N)cnn5c4)cn3)CC1)C2	8.15
C=CC(=O)Nc1ccccc1C(=O)N1CCC[C@@H](n2cc(-c3cc(OC)c4c(C#N)cnn4c3)cn2)C1	7.74
C=CC(=O)N1CC(CN2CC(n3cc(-c4cc(OC)c5c(C#N)cnn5c4)cn3)C2)C1	8.10

Input line: Request the reported pIC50 associated with C=CC(=O)N1CC(CN2CCC(n3ncc(-c4cc(OC)c5c(C#N)cnn5c4)c3C)CC2)C1
Output line: 7.30

Input line: What do we get for C=CC(=O)N1CC(C(=O)N2CCC(n3cnc(-c4cc(OC)c5c(C#N)cnn5c4)c3)CC2)C1 ?
Output line: 8.22

Input line: Now consider C=CC(=O)N1CCC(Oc2cccc(-n3cc(-c4cc(OC)c5c(C#N)cnn5c4)cn3)c2)CC1 and answer again.
Output line: 7.38

====

- TARGET_OR_TEST_SYSTEM: dephosphorylated FGFR1 (SEQ ID NO: 1, amino acids 458 to 765) (Homo sapiens (Human))
- Sequence (P11362 458-765): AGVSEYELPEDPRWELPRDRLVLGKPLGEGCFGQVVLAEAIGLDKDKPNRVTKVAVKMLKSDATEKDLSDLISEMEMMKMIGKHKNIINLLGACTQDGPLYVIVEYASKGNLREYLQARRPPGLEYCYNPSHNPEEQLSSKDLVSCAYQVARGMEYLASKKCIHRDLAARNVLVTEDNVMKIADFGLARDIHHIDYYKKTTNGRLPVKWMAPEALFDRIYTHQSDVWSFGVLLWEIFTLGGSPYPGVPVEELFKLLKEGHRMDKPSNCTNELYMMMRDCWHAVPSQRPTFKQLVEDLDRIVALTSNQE
In plain terms, low IC50, meaning strictly below 60 nM, gives condition met, and everything else gives condition not met.

Example results:
ENTRY_SMILES	CAT
C=CC(=O)Nc1cccc(C(=O)N2CC[C@@H](n3cc(-c4cc(OC)c5c(C#N)cnn5c4)cn3)C2)c1	condition not met
C=CC(=O)N1CC(C(=O)N2CC3CC(C2)N3c2ccc(-c3cc(OC)c4c(C#N)cnn4c3)cn2)C1	condition not met
C=CC(=O)N1CC2CC(C1)N2C(=O)N1CCC(n2cc(-c3cc(OC)c4c(C#N)cnn4c3)cn2)CC1	condition met
C=CC(=O)N1CC(C(=O)N2CCN(c3ccc(-c4cc(OC)c5c(C#N)cnn5c4)cc3)CC2)C1	condition met
C=CC(=O)N1CC(F)(C(=O)N2CCN(c3ccc(-c4cc(OC)c5c(C#N)cnn5c4)cn3)CC2)C1	condition not met

Here is another compound to look at.
Input line: Lab note: IC50 threshold 60 nM. Does this compound come in strictly under it? COc1cc(-c2cnn(C3CCN(CC4CN(C(=O)/C=C/CN(C)C)C4)CC3)c2)cn2ncc(C#N)c12
Output line: condition met

====

pIC50 values by entry
- TARGET_OR_TEST_SYSTEM: recombinant human FGFR1 catalytic domain (amino acids 308-731) (Homo sapiens (Human))
- Sequence (P11362 other isoform, or with tags, fused parts or gaps): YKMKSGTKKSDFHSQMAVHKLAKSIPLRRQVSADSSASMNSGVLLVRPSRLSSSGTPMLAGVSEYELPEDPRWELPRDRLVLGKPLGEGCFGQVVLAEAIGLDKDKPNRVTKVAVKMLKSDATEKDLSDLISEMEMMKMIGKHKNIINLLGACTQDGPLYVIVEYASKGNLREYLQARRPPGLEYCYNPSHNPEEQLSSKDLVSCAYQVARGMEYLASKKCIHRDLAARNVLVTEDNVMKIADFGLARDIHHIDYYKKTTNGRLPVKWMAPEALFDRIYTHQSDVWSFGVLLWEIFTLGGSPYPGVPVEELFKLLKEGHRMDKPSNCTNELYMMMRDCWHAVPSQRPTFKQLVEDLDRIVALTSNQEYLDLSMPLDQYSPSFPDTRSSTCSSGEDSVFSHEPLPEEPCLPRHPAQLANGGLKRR
- RUN_DESCRIPTION: FGFR1 enzyme activity assay (LanthaScreen TR-FRET)
- RUN_CONDITIONS: 20 min incubation at 22° C., average of multiple determinations if made, read-out: FGFR1 Enz FRET IC50
// returns pIC50 (minus log10 of molar concentration), number only

MOLECULE	pIC50
C=CC(=O)N1CC(C(=O)N2CCC(n3cc(-c4cc(OCC(C)C)c5c(C#N)cnn5c4)cn3)CC2)C1	8.15
C=CC(=O)N1CCN(C(=O)N2CCC(n3cc(-c4cc(OC)c5c(C#N)cnn5c4)cn3)CC2)C[C@@H]1CC#N	7.70
C=CC(=O)N1CC(F)(C(=O)N2CCC(n3ncc(-c4cc(OC)c5c(C#N)cnn5c4)c3C)CC2)C1	7.11

Note: attention shifts to another entry.
Input line: # get_value(readout='pIC50', item= C=CC(=O)N1CC(C(=O)N2CCC(n3ncc(-c4cc(OC)c5c(C#N)cnn5c4)c3C)CC2)C1(C)C (stereo not shown) )
Output line: 6.62

====

A collection of compounds and their measured IC50
- TARGET_OR_TEST_SYSTEM: HEK-293 cells transfected with dox-inducible human wild type FGFR1 (Homo sapiens (Human))
- Sequence (P11362 22-822): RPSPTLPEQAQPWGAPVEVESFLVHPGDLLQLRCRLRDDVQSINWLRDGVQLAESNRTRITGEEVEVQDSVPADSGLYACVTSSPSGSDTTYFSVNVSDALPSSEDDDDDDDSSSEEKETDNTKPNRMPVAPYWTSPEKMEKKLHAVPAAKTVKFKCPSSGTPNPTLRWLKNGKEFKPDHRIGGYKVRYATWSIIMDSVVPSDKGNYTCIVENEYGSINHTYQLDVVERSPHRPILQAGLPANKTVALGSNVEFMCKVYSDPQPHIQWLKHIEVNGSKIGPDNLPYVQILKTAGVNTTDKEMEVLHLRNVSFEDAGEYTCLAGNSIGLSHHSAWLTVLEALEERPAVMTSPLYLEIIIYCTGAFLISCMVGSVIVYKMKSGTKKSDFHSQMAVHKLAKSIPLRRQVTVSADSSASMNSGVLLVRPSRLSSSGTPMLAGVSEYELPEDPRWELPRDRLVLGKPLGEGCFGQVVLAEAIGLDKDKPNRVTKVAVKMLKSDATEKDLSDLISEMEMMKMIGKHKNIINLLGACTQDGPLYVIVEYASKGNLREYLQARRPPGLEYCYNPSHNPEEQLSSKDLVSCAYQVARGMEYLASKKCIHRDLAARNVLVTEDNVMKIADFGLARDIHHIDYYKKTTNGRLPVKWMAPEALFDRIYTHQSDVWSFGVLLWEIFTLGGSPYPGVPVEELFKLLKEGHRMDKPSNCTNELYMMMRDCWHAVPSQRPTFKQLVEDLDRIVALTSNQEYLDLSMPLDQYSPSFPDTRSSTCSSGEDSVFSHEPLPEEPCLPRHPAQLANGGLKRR
- RUN_DESCRIPTION: FGFR1 pERK cell assay
- Format: cell-based
- RUN_CONDITIONS: HEK-293 dox-inducible FGFR1, 1 hour compound, 100 ng/ml FGF-acidic; maximum concentration 5 μM

Here is how some compounds turned out for IC50.
COMPOUND	TARGET_OR_TEST_SYSTEM	RECORDED_MEASUREMENT
COc1cc(-c2cnn(C3CCN(C(=O)C4CN(C(=O)/C=C/CN5CCOCC5)C4)CC3)c2)cn2ncc(C#N)c12 [Example 184]	HEK-293 cells transfected with dox-inducible human wild type FGFR1 (Homo sapiens (Human))	≥ 5 µM
C=CC(=O)N1CC(C(=O)N2CCN(c3ccc(-c4cc(OC)c5c(C#N)cnn5c4)nn3)CC2)C1 [Example 115]	HEK-293 cells transfected with dox-inducible human wild type FGFR1 (Homo sapiens (Human))	≥ 5 µM

Input line: Sample COc1cc(-c2cnn(C3CCN(C(=O)C4CN(C(=O)/C=C/CN(C)C)C4)CC3)c2C)cn2ncc(C#N)c12 [Example 152] — what was its IC50?
Output line: ≥ 5 µM

====

- TARGET_OR_TEST_SYSTEM: recombinant human FGFR3 (amino acids R397-T806) (Homo sapiens (Human))
- RUN_DESCRIPTION: FGFR3 enzyme activity assay (LanthaScreen TR-FRET)
- RUN_CONDITIONS: 25 μM ATP, 10 min incubation at 22° C., average of multiple determinations if made, read-out: FGFR3 Enz FRET IC50
log10 of IC50 reference
Lab note - IC50 converted to log10 from values in nM.

Worked examples, 6 compounds total:
ENTRY_SMILES	RECORDED_MEASUREMENT
COc1cc(-c2cnn(C3CCN(C(=O)C4CN(C(=O)/C=C/CN5CC[C@@H](F)C5)C4)CC3)c2)cn2ncc(C#N)c12	0.70
COc1cc(-c2cnn(C3CCN(C(=O)C4CN(C(=O)/C=C/CN5CC[C@H](F)C5)C4)CC3)c2)cn2ncc(C#N)c12	0.48
C=CC(=O)N1CC(OC)(C(=O)N2CCC(n3ncc(-c4cc(OC)c5c(Cl)cnn5c4)c3C)CC2)C1	1.63
C=CC(=O)N1CC(C(=O)N2CCC(n3cc(-c4cc(OC)c5c(C#N)cnn5c4)c(CC)n3)CC2)C1	1.86
C=CC(=O)N1CC2(CCN(C(=O)N3CCC(n4cc(-c5cc(OC)c6c(C#N)cnn6c5)cn4)CC3)C2)C1	0.48
COc1cc(-c2ccc(N3CCN(C(=O)C4(F)CN(C(=O)/C=C/CN(C)C)C4)CC3)nc2C)cn2ncc(C#N)c12	1.86

Input line: Requested read-out: log10 of IC50. Entry: C=CC(=O)N1CCC(C(=O)N2CCC(n3ncc(-c4cc(OC)c5c(C#N)cnn5c4)c3C)CC2)CC1
Output line: 1.00

Input line: Consider next the compound C=CC(=O)N1CCN(c2cccc(-n3cc(-c4cc(OC)c5c(C#N)cnn5c4)cn3)c2)CC1 in the same way.
Output line: 1.32

Input line: Repeat for the following compound: C=CC(=O)N1CC(OC)(C(=O)N2CCC(n3nc(C)c(-c4cc(OC)c5c(C#N)cnn5c4)c3C)CC2)C1
Output line: 2.01

Input line: Check C=CC(=O)N1CC(CN2CCC(n3cc(-c4cc(OC)c5c(C#N)cnn5c4)cn3)CC2)C1 too.
Output line: 0.90

Input line: Follow-up item: C=CC(=O)N1CC(C(=O)N2CCC(c3ccc(-c4cc(OC)c5c(C#N)cnn5c4)cc3)CC2)C1
Output line: 0.60

Input line: Also, C=CC(=O)N1CC(F)(C(=O)N2CCC(n3ncc(-c4cc(OC)c5c(C#N)cnn5c4)c3C)CC2)C1 please.
Output line: 0.85

Input line: Moving on to C=CC(=O)Nc1ccccc1C(=O)N1CCC[C@@H](n2cc(-c3cc(OC)c4c(C#N)cnn4c3)cn2)C1
Output line: 1.08
